These data points were gathered from PubChem BioAssay AID230.

Tested on: C3H/He mice, Gardner lymphosarcoma 6C3HED ip, survival T/C
procedureText: NCI In Vivo Anticancer Drug Screen. Data for tumor model Lymphosarcoma Gardner 6C3HED (intraperitoneal) in C3H/He mice
assayContext: endpoint: survival time, mean or median; dose: 2.5 mg/kg/injection; schedule: Q01DX010 (ip); vehicle: saline
Inconclusive results and toxic doses are left out. Rule for the calls: active = survival T/C of 150% or more; inactive = T/C below 125% in these data.
A correct response names exactly one class from active, inactive

Req: Entry CC1CCOS(=O)O1 (centres undefined) : call = ?
Resp: inactive

Req: Entry "N=C(N)SCc1c2ccccc2c(CSC(=N)N)c2ccccc12" : call = ?
Resp: active

Req: Entry "N#[N+]c1cnc([O-])[nH]c1=O" : call = ?
Resp: active

Req: Entry "CC[n+]1c(-c2ccccc2)c2cc(N)ccc2c2ccc(N)cc21" : call = ?
Resp: inactive
